Source listed as patent US20180148418A1.

TNKS1 (Homo sapiens, UniProt O95271) IC50 data
Structures can show the parent of a compound that is named as a salt.
Numbers only, in nM.

Cc1c(C(C)N(C)C)cnc2c(C(=O)N[C@H]3CC[C@H](C(=O)Nc4ccc(F)cc4Cl)CC3)cnn12 (single isomer, unassigned) [Example 56] | 840

Consider the additional compound presented here.
Lab note: measured IC50 of CNC(C)c1cnc2c(C(=O)N[C@H]3CC[C@H](C(=O)Nc4ccc(F)cc4Cl)CC3)cnn2c1C (stereo partly shown) [Example 54, formic acid salt] was 460

* * *

# Target: TNKS1 (Homo sapiens, UniProt O95271)
Measurement name: pIC50
Give bare numbers, as −log10 of the molar value.

Consider the worked cases shown below.
O=C(N[C@H]1CC[C@H](C(=O)Nc2ccc(F)cc2Cl)CC1)c1cnn2cccnc12 [Example 43] | 7.09
Cc1cc(C)n2ncc(C(=O)NC34CCC(C(=O)Nc5cnccc5Cl)(CC3)CC4)c2n1 [Example 128] | 7.06
Cc1cc(N(C)C(=O)[C@H]2CC[C@H](NC(=O)c3cnn4cccnc34)CC2)c(Cl)cc1F [Example 176] | 6.80
O=C(NCCC1CC1)c1nc[nH]c1C(=O)N[C@H]1CC[C@H](C(=O)Nc2cc(N3CCOCC3)ccc2Cl)CC1 [Example 93] | 6.10
CNC(=O)c1nc[nH]c1C(=O)N[C@H]1CC[C@H](C(=O)Nc2cc(N3CCOCC3)ccc2Cl)CC1 [Example 88] | 5.44

# return pIC50 for each item in the list
1. O=C(N[C@H]1CC[C@H](C(=O)Nc2ccc(F)cc2Cl)CC1)c1cnc2cccnn12 [Example 45]
2. CC(C)(O)CNC(=O)c1nc[nH]c1C(=O)N[C@H]1CC[C@@]2(CCN(c3cccc(Cl)c3)C2=O)CC1 [Example 284]

1: 6.51; 2: 6.19

* * *

# Target: TNKS1 (Homo sapiens, UniProt O95271)
# Sequence (O95271 1-1327): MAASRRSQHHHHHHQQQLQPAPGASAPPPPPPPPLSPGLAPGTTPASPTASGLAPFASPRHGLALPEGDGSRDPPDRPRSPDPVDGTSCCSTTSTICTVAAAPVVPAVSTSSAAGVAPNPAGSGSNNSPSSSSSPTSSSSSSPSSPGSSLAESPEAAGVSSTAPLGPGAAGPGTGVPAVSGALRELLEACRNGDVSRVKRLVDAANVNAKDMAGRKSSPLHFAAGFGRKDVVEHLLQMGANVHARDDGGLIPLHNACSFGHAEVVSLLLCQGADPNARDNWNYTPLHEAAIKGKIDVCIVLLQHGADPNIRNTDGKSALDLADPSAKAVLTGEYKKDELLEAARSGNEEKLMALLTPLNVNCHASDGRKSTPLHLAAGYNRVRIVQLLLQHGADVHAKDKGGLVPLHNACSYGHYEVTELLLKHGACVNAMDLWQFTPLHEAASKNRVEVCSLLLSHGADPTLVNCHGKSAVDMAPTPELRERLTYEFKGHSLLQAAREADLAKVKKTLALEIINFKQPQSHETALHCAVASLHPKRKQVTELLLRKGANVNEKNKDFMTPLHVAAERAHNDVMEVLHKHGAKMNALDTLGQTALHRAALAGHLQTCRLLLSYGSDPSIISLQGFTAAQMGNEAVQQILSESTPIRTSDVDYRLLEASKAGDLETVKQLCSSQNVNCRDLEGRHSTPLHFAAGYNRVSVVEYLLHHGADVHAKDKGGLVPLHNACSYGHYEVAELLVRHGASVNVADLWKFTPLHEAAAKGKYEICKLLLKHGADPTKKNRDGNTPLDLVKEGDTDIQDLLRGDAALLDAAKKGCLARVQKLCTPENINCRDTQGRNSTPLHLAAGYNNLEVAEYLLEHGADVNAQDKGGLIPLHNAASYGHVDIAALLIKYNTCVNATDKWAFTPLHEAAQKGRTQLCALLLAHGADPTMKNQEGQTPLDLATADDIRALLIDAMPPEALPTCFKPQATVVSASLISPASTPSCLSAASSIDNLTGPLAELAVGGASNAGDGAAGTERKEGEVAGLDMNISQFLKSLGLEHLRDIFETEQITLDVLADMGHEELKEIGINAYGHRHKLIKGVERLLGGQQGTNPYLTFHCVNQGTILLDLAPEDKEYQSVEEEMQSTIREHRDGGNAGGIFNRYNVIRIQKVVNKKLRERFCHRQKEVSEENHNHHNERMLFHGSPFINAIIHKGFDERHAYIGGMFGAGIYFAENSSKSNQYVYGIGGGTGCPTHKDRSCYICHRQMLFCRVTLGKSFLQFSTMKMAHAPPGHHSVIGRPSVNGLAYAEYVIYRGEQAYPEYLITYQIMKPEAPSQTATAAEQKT
Measurement name: log10(IC50) (log10 of the value in µM)
Remember, log10 of IC50, in µM.

Sample answers from the record:
Cc1cc(F)cc(Cl)c1NC(=O)[C@H]1CC[C@H](NC(=O)c2cnn3cccnc23)CC1 [Example 151] | -0.33
O=C(NC[C@H]1CCCO1)c1nc[nH]c1C(=O)N[C@H]1CC[C@H](C(=O)Nc2ccc(F)cc2Cl)CC1 [Example 80] | -1.21
NC(=O)c1nc[nH]c1C(=O)N[C@H]1CC[C@@]2(CCN(c3ccc(F)cc3Cl)C2=O)CC1 [Example 186] | -1.74
O=C(N[C@H]1CC[C@H](C(=O)Nc2ccc(F)cc2Cl)CC1)c1cnc2ccc(O)nn12 [Example 360] | 0.40
O=C(NCC1CCCO1)c1nc[nH]c1C(=O)N[C@H]1CC[C@H](C(=O)Nc2cc(F)ccc2Cl)CC1 (stereo partly shown) [Example 129] | -1.35

Answer for every listed entry: what is its log10(IC50)? The entries follow.
1. Cc1cc(C)n2ncc(C(=O)NC34CCC(C(=O)Nc5ccc(F)cc5Cl)(CC3)CC4)c2n1 [Example 125]
2. O=C(N[C@H]1CC[C@@]2(CCN(c3ccccc3Cl)C2=O)CC1)c1cnc2cccnn12 [Example 271]

1: -0.92; 2: -1.82
